Target: T1, human MSLN-R1-his protein (human, UniProt Q13421 296-390)
T1 construct: also called hMSLN-R1-his; human MSLN-R1 protein; not shown: His tag
T1 chain: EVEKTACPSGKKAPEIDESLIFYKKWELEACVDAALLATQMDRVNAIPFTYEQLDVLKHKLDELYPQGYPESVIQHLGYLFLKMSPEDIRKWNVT
Test: ELISA, coated antigen; antibody 10 nM
OD450 reference
Reply with the value as a number alone.

[[record]]
binder = "S009-F1.59.1 human-murine chimeric antibody (antibody, human IgG1, kappa, V domains shown, Chimeric IgG1/kappa) VH: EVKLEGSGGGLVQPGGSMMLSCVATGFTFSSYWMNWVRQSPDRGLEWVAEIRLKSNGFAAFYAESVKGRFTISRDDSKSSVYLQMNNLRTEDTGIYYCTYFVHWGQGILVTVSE VL: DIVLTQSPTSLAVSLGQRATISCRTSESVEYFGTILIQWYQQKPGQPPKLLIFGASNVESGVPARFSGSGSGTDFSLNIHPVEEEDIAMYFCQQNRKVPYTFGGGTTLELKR"
recorded_value = 0.04

[[record]]
binder = "S009-F1.35.24 human-murine chimeric antibody (antibody, human IgG1, kappa, V domains shown, Chimeric IgG1/kappa) VH: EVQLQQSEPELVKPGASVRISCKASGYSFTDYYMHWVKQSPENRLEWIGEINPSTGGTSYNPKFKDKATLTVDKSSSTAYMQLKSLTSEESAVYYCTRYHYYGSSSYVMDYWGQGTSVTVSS VL: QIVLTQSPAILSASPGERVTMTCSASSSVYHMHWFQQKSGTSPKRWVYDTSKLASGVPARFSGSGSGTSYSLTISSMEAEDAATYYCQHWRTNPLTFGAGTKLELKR"
recorded_value = 0.04

[[record]]
binder = "S009-F1.56.1 human-murine chimeric antibody (antibody, human IgG1, kappa, V domains shown, Chimeric IgG1/kappa) VH: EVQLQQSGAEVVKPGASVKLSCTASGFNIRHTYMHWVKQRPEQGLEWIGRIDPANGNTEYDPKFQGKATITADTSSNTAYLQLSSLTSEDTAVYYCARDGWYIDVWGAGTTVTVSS VL: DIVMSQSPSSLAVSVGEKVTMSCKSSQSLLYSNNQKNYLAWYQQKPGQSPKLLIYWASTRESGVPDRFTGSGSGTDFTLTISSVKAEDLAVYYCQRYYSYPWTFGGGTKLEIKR"
recorded_value = 0.06


Below: the item to evaluate.
Query string: State the recorded OD450 for this entry: S009-F1.57.1 human-murine chimeric antibody (antibody, human IgG1, kappa, V domains shown, Chimeric IgG1/kappa) VH: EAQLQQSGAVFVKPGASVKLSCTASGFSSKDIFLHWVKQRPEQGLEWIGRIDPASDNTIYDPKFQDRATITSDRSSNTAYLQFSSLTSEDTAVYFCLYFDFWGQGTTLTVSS VL: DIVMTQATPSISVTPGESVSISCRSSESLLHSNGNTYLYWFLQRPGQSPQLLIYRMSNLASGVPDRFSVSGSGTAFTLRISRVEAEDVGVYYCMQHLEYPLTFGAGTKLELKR
Result string: 0.04
